- procedure_details: activity coefficient (dimensionless); of the first substance listed, at infinite dilution; xn = mol fraction of the nth substance listed
- measurement_conditions: 323.15 K; Liquid; x1 = 0
measured_property: activity coefficient
Give bare numbers.

Some entries whose results are on file:
C=CCCCCC [1-heptene] + CCCCCCn1cc[n+](C)c1.F[P-](F)(F)(F)(F)F
12.4
C#CCCCCC [1-heptyne] + CCCCCCn1cc[n+](C)c1.F[P-](F)(F)(F)(F)F
4.07
CCCCCCCC [octane] + CCCCCCn1cc[n+](C)c1.F[P-](F)(F)(F)(F)F
32
C1CCCCCCC1 [cyclooctane] + CCCCCCn1cc[n+](C)c1.F[P-](F)(F)(F)(F)F
12.2
C=CCCCC [hex-1-ene] + CCCCCCn1cc[n+](C)c1.F[P-](F)(F)(F)(F)F
7.88

# input for lookup
Which activity coefficient value belongs to C1CCCCCC1 [cycloheptane] + CCCCCCn1cc[n+](C)c1.F[P-](F)(F)(F)(F)F ? 11.8
